# Tested on: 786-0
# assay_summary: NCI tumour cell line growth inhibition, 48 h
Calls of active or inactive are those of the source. Rule as the data show it: active = GI50 up to about 1.1 µM and inactive = higher. Starred links: 1 amine or outer side, 2 acyl side, 3 side chain; linkers in the order of their positions; H or OH if unused. Positions of bridges follow the written chain, without caps; N, C: chain ends. Non-standard residues stand in square brackets, D forms with d. Residues, ends and D or L forms follow the SMILES beside them. ξ: configuration not given here. *: point of attachment. γ4hArg(2R,3R-(OH)2) = N=C(N)NCCC[C@H](N[*:1])[C@@H](O)[C@@H](O)C(=O)[*:2]; Gln(3S,4R-Me2) = C[C@H]([C@H](N)C(=O)O)[C@@H](C)C(N)=O; X50 = CC(C)C[C@H](C)[C@@H](O)[C@@H](C)C(=O)*; X51 = COC(c1ccc(O)cc1)C(N[*:1])C(=O)[*:2]; NMeQ = CN[C@@H](CCC(N)=O)C(=O)O; Thr(3ξ) = CC(O)[C@H](N)C(=O)O; NMeA = CN[C@@H](C)C(=O)O
Can you tell me GI50 for the items I'm about to list?

# GI50 of O=C(Cn1c2ccc(Br)cc2c2nc3ccccc3nc21)NNC(=S)NC1CCCCC1 = 15.5 µM (inactive)

Record O=C(/C(=N\Nc1ccc([N+](=O)[O-])cc1[N+](=O)[O-])NC12CC3CC(CC(C3)C1)C2)C(Br)C(=O)c1ccccc1 (stereo unspecified) . Reported GI50: 3.21 µM (inactive)

So, C=CCN1C(=O)/C(=C\c2cc(C(C)(C)C)c(O)c(C(C)(C)C)c2)NC1=S ? Its GI50 was 20.8 µM (inactive)

# GI50 (compound: CN(C)CC1CCC/C1=N\O (stereo unspecified) ) is > 100 µM (inactive)

The recorded GI50 for entry CCSC(SCC)c1cc2c(cc1Br)OCO2 equals 33 µM (inactive)

Sample COC(c1ccc(O)cc1)C1NC(=O)[C@H](CCC(N)=O)N(C)C(=O)[C@H](CC(C)C)NC(=O)[C@@H](CCCN=C(N)N)NC(=O)[C@H](C(C)O)NC(=O)[C@@H](NC(=O)[C@@H](NC(=O)[C@H](O)[C@H](O)[C@H](CCCN=C(N)N)NC(=O)[C@H](C)NC(=O)[C@H](C)[C@H](O)[C@@H](C)CC(C)C)[C@@H](C)[C@@H](C)C(N)=O)[C@@H](C)OC(=O)[C@H](C)N(C)C1=O (stereo partly drawn) (X50-A[γ4hArg(2R,3R-(OH)2)][Gln(3S,4R-Me2)]T[Thr(3ξ)][dR]L[NMeQ][X51][NMeA]; ester 4-C) ; GI50 observed: 0.204 µM (active)

----------
# System: KM12
# assay_summary: NCI tumour cell line growth inhibition, 48 h
Calls of active or inactive are those of the source. Rule as the data show it: active = GI50 up to about 1.1 µM and inactive = higher.
metric: GI50

Entry CC(O)c1ccc(C(O)/C(=N\NC(=O)c2ccncc2)c2nc3ccc([N+](=O)[O-])cc3nc2O)cc1 (stereo unspecified) , KM12 data, GI50 value: 49 µM (inactive)

# value of GI50, KM12, item COc1ccccc1N1C(Cl)C(=O)C1c1c[nH]c2ccccc12 (stereo unspecified) = > 100 µM (inactive)

Tested on KM12: C/C=C/C=C/C1=NN(c2cccc(S(=O)(=O)O)c2)C2(C1)SCC(=O)N2c1nc2ccccc2s1 (stereo unspecified) . Observed GI50: 54.6 µM (inactive)

Observed GI50, KM12, CC(=O)CC(=O)Nc1ccc2ccccc2c1 : > 100 µM (inactive)

Bench note, KM12: O=C(/C=C/c1csc(-c2ccccc2)n1)NCc1ccc(C(=O)NCCc2ccccc2)cc1 , GI50 reads 61.1 µM (inactive)

GET /values?item= O=C(/C=C/CC(O)(c1ccccc1)c1ccccc1)Nc1ccccc1Cl &system= KM12 returns GI50: > 100 µM (inactive)

Item: CCc1cccc(C)c1N1C(=O)C(=O)C(c2nc3ccccc3o2)/C(=N/NC(=S)NN)C1=O (stereo unspecified) | System: KM12 | GI50: > 100 µM (inactive)

Short answer on KM12 for Nc1nnnn1CCO , GI50: > 100 µM (inactive)

Item O=C(NN1C(=O)C(Cl)C1c1cccc([N+](=O)[O-])c1)c1ccccc1O (stereo unspecified) ; assay system KM12; GI50 reported as > 100 µM (inactive)

With KM12 as the test system, CN(C)CCOC(=O)c1ccc(N)cc1 showed GI50 of 37.2 µM (inactive)

Param item: Cc1sc(N/N=C2\C(=O)Nc3ccccc32)nc1-c1ccccc1 ; param system: KM12; output GI50: 13.6 µM (inactive)

----------
# System: HCC 2998
# assay_summary: NCI tumour cell line growth inhibition, 48 h
Calls of active or inactive are those of the source. No stated cut-off is given here; in the data, active = GI50 up to about 1.1 µM and inactive = higher.
metric: GI50

Reading of GI50 for CCOC(=O)C(CCc1ncnc2c1ncn2Cc1ccccc1)(CCc1ncnc2c1ncn2Cc1ccccc1)C(=O)OCC with HCC 2998: 19.9 µM (inactive)

The reported HCC 2998 GI50 of O=C(CSc1nc2ccc(I)cc2c(=O)n1Cc1ccccc1)NN1C(=O)c2ccccc2C1=O is 28.8 µM (inactive)

Reported GI50 (HCC 2998) for entry CCOC(=O)CN1C(=O)c2cc([N+](=O)[O-])cc3cc([N+](=O)[O-])cc(c23)C1=O is > 100 µM (inactive)

Hey, HCC 2998 data for C=C(Nc1nc2ccc(C)cc2s1)C(=O)C(CC)C(=O)C(CC)CC1C(=O)NC(=O)NC1=O (centres undefined) : GI50 came out at > 100 µM (inactive)

----------
metric: GI50

Let me check: Cc1ccc(Sc2cc([N+](=O)[O-])cc(Sc3ccc(C)cc3)c2Sc2ccc(C)cc2)cc1 , system HCT-15, measured GI50 is > 100 µM

Measured on HCT-15, COC(=O)C1=C(N)C2=C(N)Oc3ccccc3C2CC1=C(C#N)C#N (stereo not given) has a documented GI50 of 17.2 µM

Record CCO/N=C(/CC)c1ccc(Br)s1 / HCT-15, GI50 recorded as > 100 µM

Item C/C=C1/CN2CCC34C(=C(C(=O)OC)C1CC23)Nc1ccc(O)cc14 (stereo not given) ; assay system HCT-15; GI50 reported as > 100 µM

Here CCOc1nnnc2[nH]cnc12 was tested on HCT-15, and its GI50 came to > 100 µM

----------
# Test system: HCC 2998
# assay_summary: NCI tumour cell line growth inhibition, 48 h
The source made the active and inactive calls. No stated cut-off is given here; in the data, active = GI50 up to about 1.1 µM and inactive = higher.
Mark one answer only. Choices: active, inactive

query: Can you look up the reported call for O=C1c2ccccc2-c2c1c(-c1ccc([N+](=O)[O-])cc1)nc1ccc3ccccc3c21 for me?
result: inactive

query: Status in this test for COc1cc(C2c3cc4c(cc3OC(Nc3ccc(C(=O)O)cc3)C2C)OCO4)cc(OC)c1OC (stereo not given) ?
result: active

query: What did the test return for Cn1c(=O)c2sc3c4sc5c(=O)n(C)c6ccccc6c5c4sc3c2c2ccccc21 ?
result: inactive

query: Field: outcome | Entry: CC1(C)CC(=O)C2=C(C1)NC1=C(C(=O)CC(C)(C)C1)C2c1ccc([N+](=O)[O-])cc1
result: inactive

query: Hey, what did the test say about Cc1nn(C(=O)Cc2ccccc2)c2c1C(c1ccc(N(C)C)cc1)SC(=N)N2 (stereo not given) ?
result: inactive

----------
# Tested on: Malme-3M
# assay_summary: NCI tumour cell line growth inhibition, 48 h
Activity calls are given as the source filed them. Cut-off read from the data, not from the text of the source: active = GI50 up to about 1.1 µM and inactive = higher.
metric: GI50

Record CC1=[N+](C)CCN1C . Reported GI50: > 100 µM (inactive)

Data point: O=C1C(=O)c2cc([N+](=O)[O-])ccc2-c2ccc([N+](=O)[O-])cc21 ; GI50 = 1.97 µM (inactive)

Input CC12CC3C(CC1SCC(=O)O2)C3(C)C (stereo unspecified) . Output GI50: > 100 µM (inactive)

Reported GI50 ( Cc1cc(C)nc(NS(=O)(=O)c2ccc(NC(=O)c3cccc4c(Nc5ccc(S(=O)(=O)N=C(N)N)cc5)c5ccccc5nc34)cc2)n1 ) = > 100 µM (inactive)

Note to self: GI50 recorded for COc1cc(C2SCCCCCCCCCCSC(c3ccc(O)c(OC)c3)SCCCCCCCCCCS2)ccc1O (stereo unspecified) was 58.1 µM (inactive)

Measured GI50, CC(C)CCCC(C)[C@H]1CC[C@H]2N/C(=N/Cc3ccccc3)CCC[C@]12C (stereo partly specified) : 1.97 µM (inactive)

Looking up COc1cc2c(c(OC)c1OC)-c1[nH]ncc1CC2 , I found its GI50 recorded as > 100 µM (inactive)

GI50 reported for this molecule COc1ccc(/C=C2\NC(=S)N(CN3CCOCC3)C2=O)cc1 : > 100 µM (inactive)

Item: COC1(OC)CC2C(=O)N(Cc3ccccc3)C1C=C2S(=O)(=O)c1ccccc1 (stereo unspecified) | GI50: 20.4 µM (inactive)

Record CCCCN(CCCC)CC(O)c1cc(-c2ccc(Cl)c(Cl)c2)nc2c(Cl)cc(Cl)cc12 (stereo unspecified) , field GI50: > 100 µM (inactive)

Noted for O=C1c2ccccc2-c2c1c(-c1ccc([N+](=O)[O-])cc1)nc1ccc3ccccc3c21 : its GI50 reads > 100 µM (inactive)
